# target desc: Human T-type calcium channel (Cav 3.2) (Homo sapiens)
# Construct: Edward Perez-Reyes, University of Virginia, USA; host or cells: HEK293
# Sequence (O95180 whole entry): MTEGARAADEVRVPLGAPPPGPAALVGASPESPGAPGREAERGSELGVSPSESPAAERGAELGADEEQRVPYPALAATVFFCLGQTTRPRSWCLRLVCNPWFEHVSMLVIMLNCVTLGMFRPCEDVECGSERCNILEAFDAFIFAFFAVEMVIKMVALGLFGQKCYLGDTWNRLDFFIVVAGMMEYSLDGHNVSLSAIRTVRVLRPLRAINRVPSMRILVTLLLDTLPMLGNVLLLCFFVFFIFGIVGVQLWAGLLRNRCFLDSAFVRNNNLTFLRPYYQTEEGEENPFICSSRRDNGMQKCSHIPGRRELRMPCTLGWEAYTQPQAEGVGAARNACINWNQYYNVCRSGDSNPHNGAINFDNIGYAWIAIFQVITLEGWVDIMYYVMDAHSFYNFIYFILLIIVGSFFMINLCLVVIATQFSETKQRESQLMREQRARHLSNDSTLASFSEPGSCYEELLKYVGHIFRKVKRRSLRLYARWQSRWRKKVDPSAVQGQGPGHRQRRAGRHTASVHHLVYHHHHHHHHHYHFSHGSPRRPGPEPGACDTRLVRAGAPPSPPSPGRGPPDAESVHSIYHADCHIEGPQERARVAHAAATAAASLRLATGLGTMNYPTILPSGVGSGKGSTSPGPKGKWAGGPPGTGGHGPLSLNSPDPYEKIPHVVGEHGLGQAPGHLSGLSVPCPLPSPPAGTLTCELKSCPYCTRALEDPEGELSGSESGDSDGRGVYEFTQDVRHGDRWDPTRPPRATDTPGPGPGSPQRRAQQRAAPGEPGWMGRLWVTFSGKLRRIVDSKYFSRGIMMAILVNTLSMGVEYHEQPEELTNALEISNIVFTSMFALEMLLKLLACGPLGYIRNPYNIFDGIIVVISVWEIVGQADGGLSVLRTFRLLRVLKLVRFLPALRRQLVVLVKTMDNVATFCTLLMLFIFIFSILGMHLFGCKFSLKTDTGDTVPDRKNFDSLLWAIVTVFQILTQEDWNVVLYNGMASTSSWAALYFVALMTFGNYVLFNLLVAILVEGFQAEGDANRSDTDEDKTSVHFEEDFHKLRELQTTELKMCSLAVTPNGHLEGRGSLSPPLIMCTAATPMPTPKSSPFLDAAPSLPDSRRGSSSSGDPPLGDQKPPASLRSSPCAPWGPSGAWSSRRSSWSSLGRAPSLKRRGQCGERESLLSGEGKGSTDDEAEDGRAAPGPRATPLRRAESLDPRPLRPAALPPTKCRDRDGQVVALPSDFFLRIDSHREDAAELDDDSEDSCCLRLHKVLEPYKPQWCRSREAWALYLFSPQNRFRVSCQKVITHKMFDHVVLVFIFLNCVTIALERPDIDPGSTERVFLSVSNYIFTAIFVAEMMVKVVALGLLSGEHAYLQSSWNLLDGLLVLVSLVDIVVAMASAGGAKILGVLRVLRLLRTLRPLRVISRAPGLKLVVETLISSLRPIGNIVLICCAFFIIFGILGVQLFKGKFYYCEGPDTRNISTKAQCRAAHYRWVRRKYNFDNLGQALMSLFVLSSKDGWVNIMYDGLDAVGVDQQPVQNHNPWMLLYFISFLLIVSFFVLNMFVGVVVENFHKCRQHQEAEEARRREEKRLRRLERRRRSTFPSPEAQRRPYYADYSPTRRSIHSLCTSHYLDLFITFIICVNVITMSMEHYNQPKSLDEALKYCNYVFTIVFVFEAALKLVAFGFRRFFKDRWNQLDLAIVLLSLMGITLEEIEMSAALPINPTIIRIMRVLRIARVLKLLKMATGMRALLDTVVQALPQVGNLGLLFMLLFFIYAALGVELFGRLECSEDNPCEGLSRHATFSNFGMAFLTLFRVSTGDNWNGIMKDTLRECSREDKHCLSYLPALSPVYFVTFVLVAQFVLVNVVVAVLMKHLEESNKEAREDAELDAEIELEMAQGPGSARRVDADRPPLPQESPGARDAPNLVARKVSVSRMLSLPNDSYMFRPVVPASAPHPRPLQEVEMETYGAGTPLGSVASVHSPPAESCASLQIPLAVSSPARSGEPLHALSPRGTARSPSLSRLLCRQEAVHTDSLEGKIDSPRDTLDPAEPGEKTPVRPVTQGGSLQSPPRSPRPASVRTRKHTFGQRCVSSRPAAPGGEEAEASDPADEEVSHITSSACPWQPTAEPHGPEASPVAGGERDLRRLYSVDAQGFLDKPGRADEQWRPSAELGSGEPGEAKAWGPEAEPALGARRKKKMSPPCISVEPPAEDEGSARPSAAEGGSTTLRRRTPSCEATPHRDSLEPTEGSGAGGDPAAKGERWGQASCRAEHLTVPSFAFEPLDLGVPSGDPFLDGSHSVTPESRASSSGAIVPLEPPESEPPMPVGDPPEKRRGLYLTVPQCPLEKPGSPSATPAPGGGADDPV
# method summary: Calcium Influx Inhibition Assay
# Assay type: cell-based
# condition context: Human T-type calcium channel (Cav 3.2) expressing HEK293 cells, FLIPR Calcium 4 fluorescence
Listed here: items and their measured log10 of IC50.
observable: log10 of IC50 (log10 of the value in nM)

# query smiles, target desc, observable, recorded measurement
rows = [
    ("O=c1nc(N[C@@H]2CCCN(c3ccc(F)cc3)C2)ncn1Cc1ccc(Cl)cc1", "Human T-type calcium channel (Cav 3.2) (Homo sapiens)", "log10 of IC50", 2.08),
    ("O=c1nc(N2CC=C(c3ccc(F)c(Cl)c3)[C@@H](O)C2)ncn1Cc1ccc(Cl)s1", "Human T-type calcium channel (Cav 3.2) (Homo sapiens)", "log10 of IC50", 0.64),
    ("CC(=O)OCc1nc(N2CC=C(c3ccc(F)cc3)[C@@H](O)C2)nc(=O)n1Cc1ccc(C(F)(F)F)s1", "Human T-type calcium channel (Cav 3.2) (Homo sapiens)", "log10 of IC50", 1.11),
    ("O=c1nc(N2CC=C(c3cncs3)CC2)ncn1Cc1ccc(C(F)(F)F)s1", "Human T-type calcium channel (Cav 3.2) (Homo sapiens)", "log10 of IC50", 2.76),
    ("O=c1nc(N2CCN(c3ccc(F)cc3)CC2)ncn1Cc1ccc(C(F)(F)F)cc1", "Human T-type calcium channel (Cav 3.2) (Homo sapiens)", "log10 of IC50", 2.00),
    ("Cc1nc(C2=CCN(c3ncn(Cc4ccc(C(C)(C)C)s4)c(=O)n3)C[C@@H]2O)ccc1F", "Human T-type calcium channel (Cav 3.2) (Homo sapiens)", "log10 of IC50", 1.20),
    ("O=c1nc(N2CCN(c3ccc(F)cc3)CC2)ncn1Cc1ccc(OCC(F)(F)F)nc1", "Human T-type calcium channel (Cav 3.2) (Homo sapiens)", "log10 of IC50", 1.98),
    ("Cc1cc(C2=CCN(c3nc(C)n(Cc4cnc(C(F)(F)F)s4)c(=O)n3)C[C@@H]2O)cs1", "Human T-type calcium channel (Cav 3.2) (Homo sapiens)", "log10 of IC50", 0.57),
    ("O=c1nc(N2CCN(c3ccc(F)cc3)CC2)ncn1Cc1cc2cc(Cl)ccc2o1", "Human T-type calcium channel (Cav 3.2) (Homo sapiens)", "log10 of IC50", 1.70),
    ("Cc1nc(N2CC=C(c3ccc(F)cc3)[C@@H](O)C2)nc(=O)n1Cc1ccc(C(F)(F)F)o1", "Human T-type calcium channel (Cav 3.2) (Homo sapiens)", "log10 of IC50", 0.84),
    ("O=c1nc(N2CCC(c3ccc(F)cc3)CC2)ncn1Cc1ccc(Cl)cc1", "Human T-type calcium channel (Cav 3.2) (Homo sapiens)", "log10 of IC50", 2.11),
    ("O=c1nc(N2CCN(c3ccc(SC(F)(F)F)cc3)CC2)ncn1Cn1ccc(C(F)(F)F)n1", "Human T-type calcium channel (Cav 3.2) (Homo sapiens)", "log10 of IC50", 2.64),
    ("O=c1nc(N2CC=C(c3cn4c(n3)CCC4)CC2)ncn1Cc1ccc(C(F)(F)F)s1", "Human T-type calcium channel (Cav 3.2) (Homo sapiens)", "log10 of IC50", 2.71),
    ("O=c1nc(N2CC=C(c3ccc(F)c(Cl)c3)[C@@H](O)C2)ncn1Cc1ccc(C(F)(F)F)s1", "Human T-type calcium channel (Cav 3.2) (Homo sapiens)", "log10 of IC50", 0.28),
    ("Cc1cc(N2CCN(c3ncn(Cc4ccc(C(F)(F)F)o4)c(=O)n3)CC2)cs1", "Human T-type calcium channel (Cav 3.2) (Homo sapiens)", "log10 of IC50", 2.52),
    ("CN(C)Cc1nc(N2CCN(c3ccc(F)cc3)CC2)nc(=O)n1Cc1ccc(C(F)(F)F)s1", "Human T-type calcium channel (Cav 3.2) (Homo sapiens)", "log10 of IC50", 2.79),
]
